# Test system: L1210 leukemia ip in BDF1 mice, survival T/C
# assay_remarks: NCI In Vivo Anticancer Drug Screen. Data for tumor model L1210 Leukemia (intraperitoneal) in B6D2F1 (BDF1) mice
# measurement_parameters: endpoint: mean survival time; dose: 200.0 mg/kg/injection; schedule: Q01DX009 (ip); vehicle: saline; higher = longer survival
Inconclusive results and toxic doses are left out.

{"molecule": "O=C(NO)c1ccc(C(=O)NO)c(Br)c1", "T/C": "112 % of control"}
{"molecule": "CNCC(O)c1ccc(O)cc1 (configuration not stated)", "T/C": "98 % of control"}
{"molecule": "CCO[Si](CC)(CC)CC", "T/C": "98 % of control"}
{"molecule": "CSCC(N)CO (configuration not stated)", "T/C": "100 % of control"}
{"molecule": "CCC(=O)ONO", "T/C": "94 % of control"}
{"molecule": "CC1=CCCC1", "T/C": "95 % of control"}
{"molecule": "CC(=O)Oc1cccc2c1C(=O)c1ccccc1C2=O", "T/C": "103 % of control"}
